Cited source: ChEMBL document CHEMBL1135531

- Species: Cavia porcellus
- procedureSummary: Effective drug concentration for negative inotropic activity was determined; Range is from 1.02-1.98 (10e-6 M)
- Assay type: functional
metricName: EC50 (nM)
One number for each entry, in nM.

Problem: Need EC50 of CC1=C(C)n2c(noc2=O)C(O)(c2ccc(Cl)cc2)S1 (stereo unspecified) , thanks.
Result: 1420

---

- Species on record: Cavia porcellus
- procedureSummary: Effective drug concentration for negative inotropic activity was determined; Range is from 5.99-7.13 (10e-6 M)
- Format: functional, organism-based
metricName: pEC50
Give bare numbers, as −log10 of the molar value.

Problem: Need pEC50 of O=c1onc2n1C=CSC2(O)c1ccccc1 (stereo unspecified) , thanks.
Result: 5.18

---

- Organism: Cavia porcellus
- procedureSummary: Effective drug concentration for negative inotropic activity was determined; Range is from 3.67-4.52 (10e-6 M)
- Assay type: functional, organism-based
metricName: EC50 (µM)
Numbers only, in µM.

Problem: Need EC50 of O=c1onc2n1C=CSC2(O)c1ccc(Cl)cc1 (stereo unspecified) , thanks.
Result: 4.07

---

- Organism: Cavia porcellus
- procedureSummary: Effective drug concentration for negative inotropic activity was determined; Range is from 0.65-1.05 (10e-6 M)
- Format: functional
metricName: EC50 (nM)
Numbers only, in nM.

Problem: Need EC50 of CC1=CSC(O)(c2ccc(Cl)cc2)c2noc(=O)n21 (stereo unspecified) , thanks.
Result: 800

---

- Species on record: Cavia porcellus
- procedureSummary: Negative chronotropic activity in isolated guinea pig right atrium.
- Format: functional, Cardiac atrium
Everything with Decrease lower than 20% is Condition not met; everything else, including exactly 20%, is Condition met.

Past entries and their recorded results:
CC1=CSC(O)(c2cccc(Cl)c2)c2noc(=O)n21 (stereo not given)    Condition met
CC1=CSC(O)(c2ccc(C)cc2)c2noc(=O)n21 (stereo not given)    Condition not met
O=c1onc2n1-c1ccccc1SC2(O)c1ccc(Cl)cc1 (stereo not given)    Condition met

Problem: Test whether the compound COC1(c2ccc(Cl)cc2)SC=C(C)n2c1noc2=O (stereo not given) records Decrease of 20% or higher.
Result: Condition met

Problem: Test whether the compound COc1ccc(C2(O)SC=C(C)n3c2noc3=O)cc1 (stereo not given) records Decrease of 20% or higher.
Result: Condition not met

Problem: Test whether the compound CC1=CSC(OCC(C)C)(c2ccc(Cl)cc2)c2noc(=O)n21 (stereo not given) records Decrease of 20% or higher.
Result: Condition not met

Problem: Test whether the compound CC1=CSC(O)(c2ccc(-c3ccccc3)cc2)c2noc(=O)n21 (stereo not given) records Decrease of 20% or higher.
Result: Condition not met

Problem: Test whether the compound CC1=CSC(O)(c2ccc(F)cc2)c2noc(=O)n21 (stereo not given) records Decrease of 20% or higher.
Result: Condition not met

Problem: Test whether the compound CC1=CSC(O)(c2cccc(C)c2)c2noc(=O)n21 (stereo not given) records Decrease of 20% or higher.
Result: Condition not met

---

- Species on record: Cavia porcellus
- procedureSummary: Effective drug concentration for negative inotropic activity was determined; Range is from 0.18-0.30 (10e-6 M)
- Assay type: functional
metricName: EC50 (nM)
Numbers only, in nM.

Problem: Need EC50 of CC1=CSC(O)(c2ccccc2)c2noc(=O)n21 (stereo unspecified) , thanks.
Result: 230

---

Give measured inhibition at 50 µM for each item. Keep answers brief.
- Species: Cavia porcellus
- procedureSummary: Percent inhibition of calcium-induced contraction on K+-depolarized guinea-pig aortic strip at 5 x 10 e-5M
- Type: functional
- testContext: Aorta

Below, each entry is followed by its recorded inhibition at 50 µM result.
COc1ccc([C@@H]2Sc3ccccc3N(CCN(C)C)C(=O)[C@@H]2OC(C)=O)cc1    88%
CC1=CSC(O)(c2ccc([N+](=O)[O-])cc2)c2noc(=O)n21 (centres undefined)    19%
COc1ccc(C2(O)SC=C(C)n3c2noc3=O)cc1 (centres undefined)    18%
CC1=CSC(O)(c2ccc(F)cc2)c2noc(=O)n21 (centres undefined)    8%
CC1=CSC(O)(c2ccc(Br)cc2)c2noc(=O)n21 (centres undefined)    12%
CC1=CSC(O)(c2ccc(-c3ccccc3)cc2)c2noc(=O)n21 (centres undefined)    9%
CC1=CSC(O)(c2ccccc2)c2noc(=O)n21 (centres undefined)    4%
COc1cccc(C2(O)SC=C(C)n3c2noc3=O)c1 (centres undefined)    10%

Give one value of inhibition at 50 µM per listed molecule.
1. O=c1onc2n1-c1ccccc1SC2(O)c1ccc(Cl)cc1 (centres undefined)
2. CC1=CSC(O)(c2ccc(Cl)cc2)c2noc(=O)n21 (centres undefined)
3. CC1=CSC(O)(c2cccc(C(F)(F)F)c2)c2noc(=O)n21 (centres undefined)
4. O=c1onc2n1C=CSC2(O)c1ccc(Cl)cc1 (centres undefined)
5. CC1=CSC(O)(c2cccc(Cl)c2)c2noc(=O)n21 (centres undefined)
6. CC1=CSC(O)(c2ccc(C)cc2)c2noc(=O)n21 (centres undefined)

Result:
40%
26%
37%
10%
17%
5%
